Origin of values: patent US20100190237A1

# Test system: P. leiognathi
# Assay Overview: ToxScreen-II toxicity assay (bacterial luminescence) with stored bacterial suspension
# Type: cell-based
# Particulars: Day 30 of storage; light level after 30 minutes at 27° C.
For each of the compounds below, state its Sensitivity of P. leiognathi to various toxicants.
Answers are plain numbers, in mg/L.

Worked examples follow.
>>> readout_value("[K+].[K+].[O]=[Cr](=[O])([O-])[O][Cr](=[O])(=[O])[O-]")
0.6
>>> readout_value("[Cl][Cd][Cl]")
0.4
>>> readout_value("[Cl][Pb][Cl]")
2.5

Turning now to a further compound:
Task: Can you share its Sensitivity of P. leiognathi to various toxicants? I mean this compound: "Clc1ccc(C(c2ccc(Cl)cc2)C(Cl)(Cl)Cl)cc1"
Output: 0.006

---

For each of the compounds below, state its Sensitivity of P. leiognathi to various toxicants.
# System: P. leiognathi
# Assay Overview: ToxScreen-II toxicity assay (bacterial luminescence) with stored bacterial suspension
# Type: cell-based
# Particulars: Day 7 of storage; light level after 30 minutes at 27° C.
Answers are plain numbers, in mg/L.

Worked examples follow.
>>> readout_value("[Cl][Pb][Cl] [PbCl2]")
2.5
>>> readout_value("Clc1ccc(C(c2ccc(Cl)cc2)C(Cl)(Cl)Cl)cc1 [DDT]")
0.006
>>> readout_value("[K+].[K+].[O]=[Cr](=[O])([O-])[O][Cr](=[O])(=[O])[O-] [K2Cr2O7]")
0.7

Turning now to a further compound:
Task: Can you share its Sensitivity of P. leiognathi to various toxicants? I mean this compound: [Cl][Cd][Cl] [CdCl2]
Output: 0.25
